target: aldose reductase (Bos taurus); construct: the preparation of the enzyme from bovine lens; from tissue; host or cells: bovine lens; test: in vitro aldose reductase inhibition (modified Hayman and Kinoshita procedure); type: biochemical, bovine; details: 10^-6 molar; read-out: % Inhibition at Different Molar Concentration (in vitro), 10^-6
quantity-kind: inhibition at 1 µM (%)
Could you give me the number in %? Just the number is fine.

Identify the reported inhibition at 1 µM for the following entry. CN(CC(=O)O)C(=S)c1cccc2c(Cl)cc(Cl)cc12
75

Identify the reported inhibition at 1 µM for the following entry. CN(CC(=O)O)C(=S)c1cccc2c(Br)c(OCc3ccc(Cl)cc3)ccc12 [Example 53a]
44

Identify the reported inhibition at 1 µM for the following entry. COc1ccc2c(C(=S)N(C)CC(=O)O)cccc2c1Br
91

Identify the reported inhibition at 1 µM for the following entry. COc1ccc2c(C(=S)N(C)CC(=O)O)cccc2c1C#N
93

Identify the reported inhibition at 1 µM for the following entry. COc1c(Cl)cc(C(=S)NCC(=O)O)c2ccccc12
16

Identify the reported inhibition at 1 µM for the following entry. CN(CC(=O)O)C(=O)c1cccc2c(Br)cccc12
21

Identify the reported inhibition at 1 µM for the following entry. CCN(CC(=O)O)C(=S)c1cccc2c(Br)cccc12
72

Identify the reported inhibition at 1 µM for the following entry. CN(CC(=O)O)C(=S)c1cccc2c(Br)cccc12
87

Identify the reported inhibition at 1 µM for the following entry. CN(CC(=O)O)C(=S)c1cccc2c(C#N)cccc12
79

Identify the reported inhibition at 1 µM for the following entry. CN(CC(=O)O)C(=S)c1cccc2cccc(Br)c12
75

Identify the reported inhibition at 1 µM for the following entry. CCCN(CC(=O)O)C(=S)c1cccc2c(Br)cccc12
70

Identify the reported inhibition at 1 µM for the following entry. C=C(C)c1cccc2c(C(=S)N(C)CC(=O)O)cccc12
74
